Every entry's value here was drawn from the supplement of paper PMC12024424.

Tested on: Staphylococcus aureus Sa2 (MRSA, cystic fibrosis isolate)
assay_notes: growth reduction vs untreated control (viable cell count); higher = stronger antibacterial activity; extreme values may be limits of the assay
setup_conditions: 0.1 mM; 24 h
recorded_endpoint: growth reduction (%)
Report as a plain number; the unit % is understood.

Sample answers from the record:
Checklist item: growth reduction tested on Staphylococcus aureus Sa2 (MRSA, cystic fibrosis isolate), entry CCN(CC)CCOc1ccc(C(=C(Cl)c2ccccc2)c2ccccc2)cc1 [Clomiphene (citrate)] , value?
100

Give growth reduction (Staphylococcus aureus Sa2 (MRSA, cystic fibrosis isolate)) of the following molecule: COC(=O)C1=C(C)NC(C)=C(C(=O)OC(C)C)C1c1cccc2nonc12 (stereo not drawn)
100

Next:
Param readout= growth reduction; system= Staphylococcus aureus Sa2 (MRSA, cystic fibrosis isolate); entry= CCCCc1nc(-c2ccc(OCCCN(CC)CC)cc2)cn1-c1ccc(Oc2ccc(Cl)cc2)cc1 ; returns value.
100

Which measured growth reduction belongs to CCCCCCCCCCCCCCCC[N+](C)(C)CCN(Cc1ccc(OC)cc1)c1ncccn1 [Thonzonium (bromide)] , tested on Staphylococcus aureus Sa2 (MRSA, cystic fibrosis isolate)?
100

Hello, I am looking for reported growth reduction with Staphylococcus aureus Sa2 (MRSA, cystic fibrosis isolate) for CCCCc1oc2ccc(NS(C)(=O)=O)cc2c1C(=O)c1ccc(OCCCN(CCCC)CCCC)cc1 [Dronedarone] . Could you help?
100

Notebook entry, Staphylococcus aureus Sa2 (MRSA, cystic fibrosis isolate) assay: growth reduction of COc1ccc(NS(=O)(=O)c2c(F)c(F)c(F)c(F)c2F)cc1F = ?
98

Which measured growth reduction belongs to Cc1cc(SCc2sc(-c3ccc(C(F)(F)F)cc3)nc2C)ccc1OCC(=O)O , tested on Staphylococcus aureus Sa2 (MRSA, cystic fibrosis isolate)?
100

Item: CC1(C)CC[C@]2(NC(=O)C(C)(F)F)CC[C@]3(C)[C@H](C(=O)C=C4[C@@]5(C)C=C(C#N)C(=O)C(C)(C)[C@@H]5CC[C@]43C)[C@@H]2C1 Test system: Staphylococcus aureus Sa2 (MRSA, cystic fibrosis isolate) Read-out: growth reduction Value: ?
100

* * *

Tested on: Staphylococcus aureus Sa2 (MRSA, cystic fibrosis isolate)
assay_notes: growth reduction vs untreated control (viable cell count); higher = stronger antibacterial activity; extreme values may be limits of the assay
setup_conditions: 0.1 mM; 24 h
Where a name gives a salt, the structure may show the parent alone.
recorded_endpoint: growth reduction (%)
Give the value in % but do not write % after it.

Please report the recorded growth reduction for Clc1ccc(CCC(Cn2ccnc2)Sc2c(Cl)cccc2Cl)cc1 (stereo not drawn) [Butoconazole (nitrate)] .
100

Recorded growth reduction for CCOC(=O)C1=C(C)NC(C)=C(C(=O)OC)C1c1cccc(Cl)c1Cl (stereo not drawn) [Felodipine] , please?
100

Reported growth reduction, compound CC1CS(=O)(=O)CCN1/N=C/c1ccc([N+](=O)[O-])o1 (stereo not drawn) [Nifurtimox] : ____
100

Entry O=C(O)c1ccc2nc(-c3cc(Cl)cc(Cl)c3)oc2c1 [Tafamidis] has what growth reduction?
100

Name the reported growth reduction value associated with the compound NCCCC[C@H](NC(=O)[C@@H](NC(=O)[C@H](Cc1c[nH]c2ccccc12)NC(=O)[C@H](CCCCN)NC(=O)[C@H](CCCCN)NC(=O)[C@H](Cc1c[nH]c2ccccc12)NC(=O)[C@H](Cc1c[nH]c2ccccc12)NC(=O)[C@H](CCCCN)NC(=O)[C@@H](N)CCCCN)C(c1ccccc1)c1ccccc1)C(N)=O
100

Value lookup for growth reduction; key = C#C[C@]1(O)CC[C@H]2[C@@H]3CCC4=CCCC[C@@H]4[C@H]3C(=C)C[C@@]21CC [Desogestrel]
100

Need growth reduction of Cc1ccc(C(=O)N(CCCN)[C@@H](c2nc3cc(Cl)ccc3c(=O)n2Cc2ccccc2)C(C)C)cc1 [Ispinesib] , thanks.
100

Give its growth reduction value. Item: CCN(C/C=C\c1ccc(C2CCCCC2)c(Cl)c1)C1CCCCC1
99

Looking for the measured growth reduction of CC1(C)CCC(C)(C)c2cc(NC(=O)c3ccc(C(=O)O)cc3)ccc21 [Tamibarotene] , can you help?
100

Report growth reduction for O=C(Nc1ccccc1)c1ccccc1O [Salicylanilide] please.
93

More entries:
Fill in: growth reduction of COCc1c(C(C)C)nc(C(C)C)c(/C=C/[C@@H](O)C[C@@H](O)CC(=O)O)c1-c1ccc(F)cc1 [Cerivastatin (sodium)] is ___
99

Request the reported growth reduction associated with Nc1ccn([C@@H]2O[C@H](CO)[C@@H](O)C2(F)F)c(=O)n1 [Gemcitabine]
100

So what's the measured growth reduction for this one? CO[C@H](C(=O)[C@@H](O)[C@@H](C)O)[C@@H]1Cc2cc3cc(O[C@H]4C[C@@H](O[C@H]5C[C@@H](O)[C@H](O)[C@@H](C)O5)[C@H](O)[C@@H](C)O4)c(C)c(O)c3c(O)c2C(=O)[C@H]1O[C@H]1C[C@@H](O[C@H]2C[C@@H](O[C@H]3C[C@](C)(O)[C@H](O)[C@@H](C)O3)[C@@H](O)[C@@H](C)O2)[C@H](O)[C@@H](C)O1 [Plicamycin]
100

Value lookup for growth reduction; key = OC(c1cc(C(F)(F)F)nc2c(C(F)(F)F)cccc12)C1CCCCN1 (stereo not drawn) [Mefloquine (hydrochloride)]
100

Reported growth reduction, compound CC(C)Nc1nc2cc(Cl)c(Cl)cc2n1[C@H]1O[C@@H](CO)[C@H](O)[C@@H]1O [Maribavir] : ____
94
